Origin of values: ChEMBL document CHEMBL3046845

# assay notes: Phytoxicity against Hordeum vulgare (barley) assessed as growth inhibition at 125 g/ha after 3 weeks relative to control
# Type: organism-based
# measurement conditions: in vivo, read-out: GI
measured attribute: inhibition at 504 h (%)

>  <smiles text>
COC(=O)[C@@H](C)Oc1ccc(Oc2ncc(Cl)cc2F)cc1

>  <measured attribute>
inhibition at 504 h

>  <measurement unit>
%

>  <readout number>
35

$$$$
>  <smiles text>
COC(=O)[C@@H](C)Oc1ccc(OC(=O)[C@@H](C)Oc2ccc(Oc3ncc(Cl)cc3F)cc2)cc1

>  <measured attribute>
inhibition at 504 h

>  <measurement unit>
%

>  <readout number>
10

$$$$
>  <smiles text>
CCCCOC(=O)[C@@H](C)Oc1ccc(Oc2ncc(Cl)cc2F)cc1

>  <measured attribute>
inhibition at 504 h

>  <measurement unit>
%

>  <readout number>
25

$$$$
>  <smiles text>
C#CCOC(=O)[C@@H](C)Oc1ccc(OC(=O)[C@@H](C)Oc2ccc(Oc3ncc(Cl)cc3Cl)cc2)cc1

>  <measured attribute>
inhibition at 504 h

>  <measurement unit>
%

>  <readout number>
5

$$$$
>  <smiles text>
COC(=O)[C@@H](C)Oc1ccc(OC(=O)[C@@H](C)Oc2ccc(Oc3ncc(Cl)cc3Cl)cc2)cc1

>  <measured attribute>
inhibition at 504 h

>  <measurement unit>
%

>  <readout number>
15

$$$$
>  <smiles text>
CCCCOC(=O)[C@@H](C)Oc1ccc(OC(=O)[C@@H](C)Oc2ccc(Oc3ncc(Cl)cc3F)cc2)cc1

>  <measured attribute>
inhibition at 504 h

>  <measurement unit>
%

>  <readout number>
10

$$$$
>  <smiles text>
CCCOC(=O)[C@@H](C)Oc1ccc(Oc2ncc(Cl)cc2Cl)cc1

>  <measured attribute>
inhibition at 504 h

>  <measurement unit>
%

>  <readout number>
18

$$$$
>  <smiles text>
CC(C)OC(=O)[C@@H](C)Oc1ccc(Oc2ncc(Cl)cc2F)cc1

>  <measured attribute>
inhibition at 504 h

>  <measurement unit>
%

>  <readout number>
30

$$$$
>  <smiles text>
CCCOC(=O)[C@@H](C)Oc1ccc(OC(=O)[C@@H](C)Oc2ccc(Oc3ncc(Cl)cc3Cl)cc2)cc1

>  <measured attribute>
inhibition at 504 h

>  <measurement unit>
%

>  <readout number>
10

$$$$

###

# Tested on: Alopecurus myosuroides
# assay notes: Herbicidal activity against Alopecurus myosuroides assessed as growth inhibition at 125 g/ha after 3 weeks relative to control
# Format: functional
# measurement conditions: 504 h, read-out: GI
Outcome label depends on inhibition of growth at 125 g/ha relative to 60%: at/above gives true (1), below gives false (0).

>  <smiles text>
C#CCOC(=O)[C@@H](C)Oc1ccc(Oc2ncc(Cl)cc2Cl)cc1

>  <group>
false (0)

$$$$
>  <smiles text>
CCOC(=O)[C@@H](C)Oc1ccc(Oc2ncc(Cl)cc2Cl)cc1

>  <group>
false (0)

$$$$
>  <smiles text>
CC(C)OC(=O)[C@@H](C)Oc1ccc(Oc2ncc(Cl)cc2F)cc1

>  <group>
true (1)

$$$$
>  <smiles text>
CCCOC(=O)[C@@H](C)Oc1ccc(OC(=O)[C@@H](C)Oc2ccc(Oc3ncc(Cl)cc3F)cc2)cc1

>  <group>
true (1)

$$$$
>  <smiles text>
CCCCOC(=O)[C@@H](C)Oc1ccc(Oc2ncc(Cl)cc2F)cc1

>  <group>
false (0)

$$$$
>  <smiles text>
CCOC(=O)[C@@H](C)Oc1ccc(OC(=O)[C@@H](C)Oc2ccc(Oc3ncc(Cl)cc3F)cc2)cc1

>  <group>
true (1)

$$$$
>  <smiles text>
COC(=O)[C@@H](C)Oc1ccc(Oc2ncc(Cl)cc2Cl)cc1

>  <group>
false (0)

$$$$
>  <smiles text>
CCCOC(=O)[C@@H](C)Oc1ccc(Oc2ncc(Cl)cc2Cl)cc1

>  <group>
false (0)

$$$$
>  <smiles text>
COC(=O)[C@@H](C)Oc1ccc(Oc2ncc(Cl)cc2F)cc1

>  <group>
true (1)

$$$$
>  <smiles text>
CCCOC(=O)[C@@H](C)Oc1ccc(Oc2ncc(Cl)cc2F)cc1

>  <group>
true (1)

$$$$
>  <smiles text>
CCOC(=O)[C@@H](C)Oc1ccc(Oc2ncc(Cl)cc2F)cc1

>  <group>
true (1)

$$$$
>  <smiles text>
C#CCOC(=O)[C@@H](C)Oc1ccc(OC(=O)[C@@H](C)Oc2ccc(Oc3ncc(Cl)cc3F)cc2)cc1

>  <group>
true (1)

$$$$
>  <smiles text>
CCCOC(=O)[C@@H](C)Oc1ccc(OC(=O)[C@@H](C)Oc2ccc(Oc3ncc(Cl)cc3Cl)cc2)cc1

>  <group>
false (0)

$$$$
>  <smiles text>
C#CCOC(=O)[C@@H](C)Oc1ccc(Oc2ncc(Cl)cc2F)cc1

>  <group>
true (1)

$$$$
>  <smiles text>
CC(C)OC(=O)[C@@H](C)Oc1ccc(OC(=O)[C@@H](C)Oc2ccc(Oc3ncc(Cl)cc3F)cc2)cc1

>  <group>
true (1)

$$$$
>  <smiles text>
CCOC(=O)[C@@H](C)Oc1ccc(OC(=O)[C@@H](C)Oc2ccc(Oc3ncc(Cl)cc3Cl)cc2)cc1

>  <group>
false (0)

$$$$
>  <smiles text>
COC(=O)[C@@H](C)Oc1ccc(OC(=O)[C@@H](C)Oc2ccc(Oc3ncc(Cl)cc3F)cc2)cc1

>  <group>
true (1)

$$$$
>  <smiles text>
COC(=O)[C@@H](C)Oc1ccc(OC(=O)[C@@H](C)Oc2ccc(Oc3ncc(Cl)cc3Cl)cc2)cc1

>  <group>
false (0)

$$$$
>  <smiles text>
CCCCOC(=O)[C@@H](C)Oc1ccc(OC(=O)[C@@H](C)Oc2ccc(Oc3ncc(Cl)cc3F)cc2)cc1

>  <group>
true (1)

$$$$
